Examples of binders with documented glycan array binding signal (z-score) follow.
target: Gal(b1-4)GlcNAc(b1-2)Man(a1-3)Man(b1-4)GlcNAc(b1-4)GlcNAc; experiment: glycan array binding signal (z-score within array); higher = stronger binding; settings: glycan notation: IUPAC condensed, linker removed
The entries come from a sample that favours the strongest signals as a whole.
assayMetric: glycan array binding signal (z-score)

binder | number
SBD-G4S3-Fc (protein) MASIPSSASVQLDSYNYDGSTFSGKIYVKNIAYSKKVTVVYADGSDNWNNNGNIIAASFSGPISGSNYEYWTFSASVKGIKEFYIKYEVSGKTYYDNNNSANYQVSTGGGGSGGGGSGGGGSEFVPRDCGCKPCICTVPEVSSVFIFPPKPKDVLTITLTPKVTCVVVDISKDDPEVQFSWFVDDVEVHTAQTQPREEQFNSTFRSVSELPIMHQDWLNGKEFKCRVNSAAFPAPIEKTISKTKGRPKAPQVYTIPPPKEQMAKDKVSLTCMITDFFPEDITVEWQWNGQPAENYKNTQPIMDTDGSYFVYSKLNVQKSNWEAGNTFTCSVLHEGLHNHHTEKSLSHSPGAA | 0.225
his-Lectin-24A (Drosophila melanogaster) (protein) MFRLSVLVLNLLLVSHEFSAGTAKIEIQPLPALCNGYCFPTLKPVMEYVAIHQDKWNTCTEILANEARKDQIQLNIQLDALKADVSNIKASQLSKDEKLDRMEREQFAMHESLETINRYLTVKLDRTKLQLEAIKNTMDYMKAQMDGYFSAINGVQCLQPGFEKIGDRYFYIEEDVELNWLDAQAKCRRMGGHLASIKTKQEFDAIVEKLDDSKSYFLGVNENTKTGDFVSAASGKSCLYHEWGPGEPHHNNDQERCVSILRKLMHVGNCTYEKRFICQYGI | 0.019
